biological target: CAIX-expressing human HT-29 colorectal cancer cells (Homo sapiens); construct: CAIX-expressing human HT-29 colorectal cancer cells; host or cells: HT-29 human colorectal cancer cells; assay: FACS binding assay (IC50 determination, competition with tracer 3BP-2776 or 3BP-4149); conditions: FACS binding assay, HT-29 cells, competition with tracer 3BP-2776 (10 nM, biotin-labeled), 4° C., 1 hour; read-out: pIC50 category (activity) (converted)
Starred links: 1 amine or outer side, 2 acyl side, 3 side chain; linkers in the order of their positions; H or OH if unused. Positions of bridges follow the written chain, without caps; N, C: chain ends. Non-standard residues stand in square brackets, D forms with d. Residues, ends and D or L forms follow the SMILES beside them. *: point of attachment. DOTA = O=C(O)CN1CCN(CC(=O)O)CCN(CC(=O)*)CCN(CC(=O)O)CC1; mXylylene = c1cc(C[*:1])cc(C[*:2])c1; Orn = NCCC[C@H](N)C(=O)O; Dab = NCC[C@H](N)C(=O)O; Dap = NC[C@H](N)C(=O)O; Inp = O=C(O)C1CCNCC1
Give IC50 for every item shown.

Examples from the recorded data:
compound: CC(=O)N[C@H](C(=O)N[C@@H](Cc1ccc(O)cc1)C(=O)N[C@H]1CSCc2cccc(c2)CSC[C@@H](C(N)=O)NC(=O)[C@H](CO)NC(=O)[C@H](Cc2c[nH]c3ccccc23)NC(=O)[C@@H]2CC(=O)NCC[C@H](NC(=O)[C@H]3CCCN3C(=O)[C@H](CCC(=O)O)NC1=O)C(=O)N[C@@H](Cc1c[nH]c3ccccc13)C(=O)N[C@@H](CC(C)C)C(=O)N2)C(C)C [3BP-4050] (Ac-VYCE[dP][Dab]WLDWSC-NH2; linker 3-12 via mXylylene; lactam 6-9)
IC50: 100 to 794 nM

compound: CC(C)C[C@@H]1NC(=O)[C@H](Cc2ccc(NC(=O)CCS(N)(=O)=O)cc2)NC(=O)[C@H](CC(=O)O)NC(=O)[C@H]2CCCN2C(=O)[C@H](CCC(=O)O)NC(=O)[C@@H](NC(=O)[C@H](CCC(N)=O)NC(=O)CN2CCN(CC(=O)O)CCN(CC(=O)O)CCN(CC(=O)O)CC2)CSCc2cccc(c2)CSC[C@@H](C(N)=O)NC(=O)[C@H](CO)NC(=O)[C@H](Cc2c[nH]c3ccccc23)NC(=O)[C@H]([C@@H](C)O)NC1=O
IC50: < 10 nM

compound: CC(C)C[C@@H]1NC(=O)[C@H](Cc2cccc(NC(=O)c3cccc(NS(N)(=O)=O)n3)c2)NC(=O)[C@H](CC(=O)O)NC(=O)[C@H]2CCCN2C(=O)[C@H](CCC(=O)O)NC(=O)[C@@H](NC(=O)[C@H](CCC(N)=O)NC(=O)CN2CCN(C(=O)CN3CCN(CC(=O)O)CCN(CC(=O)O)CCN(CC(=O)O)CC3)CC2)CSCc2cccc(c2)CSC[C@@H](C(N)=O)NC(=O)[C@H](CO)NC(=O)[C@H](Cc2c[nH]c3ccccc23)NC(=O)[C@H]([C@@H](C)O)NC1=O
IC50: < 10 nM

compound: CC(=O)N[C@H](C(=O)N[C@@H](Cc1ccc(O)cc1)C(=O)N[C@H]1CSCc2cccc(c2)CSC[C@@H](C(N)=O)NC(=O)[C@H](CO)NC(=O)[C@H](Cc2c[nH]c3ccccc23)NC(=O)[C@@H]2CCC(=O)NCCC[C@H](NC(=O)[C@H]3CCCN3C(=O)[C@H](CCC(=O)O)NC1=O)C(=O)N[C@@H](Cc1c[nH]c3ccccc13)C(=O)N[C@@H](CC(C)C)C(=O)N2)C(C)C [3BP-3958] (Ac-VYCE[dP][Orn]WLEWSC-NH2; linker 3-12 via mXylylene; lactam 6-9)
IC50: 10 to 79.4 nM

compound: CC(C)C[C@@H]1NC(=O)[C@H](Cc2c[nH]c3ccccc23)NC(=O)[C@H](CC(=O)O)NC(=O)[C@H]2CCCN2C(=O)[C@H](CCC(=O)O)NC(=O)[C@@H]2CSCc3cccc(c3)CSC[C@@H](C(N)=O)NC(=O)[C@H](CNC(=O)C[C@H](NC(=O)[C@H](CO)NC(=O)CN3CCN(CC(=O)O)CCN(CC(=O)O)CCN(CC(=O)O)CC3)C(=O)N2)NC(=O)[C@H](Cc2c[nH]c3ccccc23)NC(=O)[C@H]([C@@H](C)O)NC1=O [3BP-4257] ({DOTA}-SDCE[dP]DWLTW[Dap]C-NH2; lactam 2-11; linker 3-12 via mXylylene)
IC50: < 10 nM

Lab note: each compound below needs its IC50 filled in.
1. CC(=O)N[C@H](C(=O)N[C@@H](Cc1ccc(O)cc1)C(=O)N[C@H]1CSCc2cccc(c2)CSC[C@@H](C(N)=O)NC(=O)[C@H](CO)NC(=O)[C@H](Cc2c[nH]c3ccccc23)NC(=O)[C@@H]2CC(=O)NCCCC[C@H](NC(=O)[C@H]3CCCN3C(=O)[C@H](CCC(=O)O)NC1=O)C(=O)N[C@@H](Cc1c[nH]c3ccccc13)C(=O)N[C@@H](CC(C)C)C(=O)N2)C(C)C [3BP-4046] (Ac-VYCE[dP]KWLDWSC-NH2; linker 3-12 via mXylylene; lactam 6-9)
2. CC(=O)N[C@H](C(=O)N[C@@H](Cc1ccc(O)cc1)C(=O)N[C@H]1CSCc2cccc(c2)CSC[C@@H](C(N)=O)NC(=O)[C@H](CO)NC(=O)[C@H](Cc2c[nH]c3ccccc23)NC(=O)[C@@H]2CCC(=O)NCC[C@H](NC(=O)[C@H]3CCCN3C(=O)[C@H](CCC(=O)O)NC1=O)C(=O)N[C@@H](Cc1c[nH]c3ccccc13)C(=O)N[C@@H](CC(C)C)C(=O)N2)C(C)C [3BP-3960] (Ac-VYCE[dP][Dab]WLEWSC-NH2; linker 3-12 via mXylylene; lactam 6-9)
3. CC(C)C[C@@H]1NC(=O)[C@H](Cc2c[nH]c3ccccc23)NC(=O)[C@H](CC(=O)O)NC(=O)[C@H]2CCCN2C(=O)[C@H](CCC(=O)O)NC(=O)[C@@H]2CSCc3cccc(c3)CSC[C@@H](C(N)=O)NC(=O)[C@H](CNC(=O)C[C@H](NC(=O)C3CCN(C(=O)CN4CCN(CC(=O)O)CCN(CC(=O)O)CCN(CC(=O)O)CC4)CC3)C(=O)N2)NC(=O)[C@H](Cc2c[nH]c3ccccc23)NC(=O)[C@H]([C@@H](C)O)NC1=O [3BP-4256] ({DOTA-Inp}-DCE[dP]DWLTW[Dap]C-NH2; lactam 1-10; linker 2-11 via mXylylene)
4. CC(=O)N[C@H](C(=O)N[C@@H](Cc1ccc(O)cc1)C(=O)N[C@H]1CSCc2cccc(c2)CSC[C@@H](C(N)=O)NC(=O)[C@H](CO)NC(=O)[C@H](Cc2c[nH]c3ccccc23)NC(=O)[C@@H]2CC(=O)NCCC[C@H](NC(=O)[C@H]3CCCN3C(=O)[C@H](CCC(=O)O)NC1=O)C(=O)N[C@@H](Cc1c[nH]c3ccccc13)C(=O)N[C@@H](CC(C)C)C(=O)N2)C(C)C [3BP-4005] (Ac-VYCE[dP][Orn]WLDWSC-NH2; linker 3-12 via mXylylene; lactam 6-9)

A.
["10 to 79.4 nM", "10 to 79.4 nM", "< 10 nM", "< 10 nM"]
